The values you see were collected from PubChem BioAssay AID686978.

# measurement-notes: qHTS for Inhibitors of human tyrosyl-DNA phosphodiesterase 1 (TDP1): qHTS in cells in absence of CPT; further: nearly all actives have a fitted effect of over 55% in size; further: potency means the concentration at half of the fitted maximal effect
# assay-context: DT40 Tdp1-/- hTDP1 cells, no CPT, ATP luminescence, 48 h; series mostly up to 46.2 µM
Hit rate of the full screen: of about 420,000 compounds, about 64,000 (15%) were called active. About 27% were inconclusive and are not listed. Shown is part of a subset that was picked to be rich in actives.
measured-attribute: Potency

Examples from the recorded data:
CCCCCn1c(=O)c(C(=O)NCc2ccccc2)c(O)c2ccccc21    6.51 µM (active)
N=c1ccccn1Cc1ccccc1    inactive
C=Cn1ccnc1P(=S)(c1cc(N(CC)CC)ns1)c1nccn1C=C    inactive
CCCCCn1c(=O)c(C(=O)NCc2ccccn2)c(O)c2ccccc21    20.6 µM (active)
CCCCCn1c(=O)c(C(=O)Nc2c(C)n(C)n(-c3ccccc3)c2=O)c(O)c2ccccc21    4.61 µM (active)
COC(=O)CN(CCCl)P1(=O)OCCCN1CCCl (stereo not drawn)    inactive

Which Potency value is on record for CO[C@@H]1C[C@@H](C[C@H]2CC[C@H](C)[C@@H]([C@@H](C)C(=O)O)O2)O[C@]2(O[C@](C)([C@H]3CC[C@@](C)(C4OC([C@H]5O[C@@](O)(CO)[C@H](C)C[C@@H]5C)C[C@@H]4C)O3)C[C@H]2C)[C@@H]1C (stereo partly drawn) ?
0.588 µM (active)

Which Potency value is on record for `COc1ccc(CNCCc2ccc3c(c2)OCO3)c(OC)c1OC` ?
inactive

Which Potency value is on record for `NC(=O)Cn1cc(C(=O)c2ccccc2F)c2ccccc21` ?
inactive

Which Potency value is on record for `COC(=O)C[C@H]1CC[C@H]2NC[C@@H](O)COC[C@@H]2O1` ?
inactive

Which Potency value is on record for `COc1cc(Cl)ccc1Nc1ncc(C(=O)N2CCN(c3ccccc3OC)CC2)c2ccccc12` ?
5.8 µM (active)

Which Potency value is on record for `CCOC(=O)[C@]12Cc3cc(OC)ccc3[C@H]1N(C(C)C)C(=O)c1ccccc12` ?
6.51 µM (active)

Which Potency value is on record for `Cn1cc(/C=C/c2nc3ccccc3c(=O)n2-c2ccccc2)c2ccccc21` ?
8.2 µM (active)
